# Tested on: HPAC
# TEST_METHOD_NOTES: Cytotoxicity against human HPAC cell line
# Format: functional, cell-based
RESULT_TYPE: IC50 (nM)
Respond with the bare value in nM.

# assay system HPAC: give IC50 of CCC(=C/[C@H](C)C/C=C/C(C)=C/[C@@H](CO)C(=O)[C@@H](C)[C@H](O)[C@@H](C)C/C(C)=C/C(=O)O)/C=C/[C@H]1CC(C)=CC(=O)O1
0.309
